system: HOP-92 NSCLC; assay: NCI tumour cell line growth inhibition, 48 h
readout.kind: TGI (µM)

                                   compound  readout_kind  output_unit  relation  number
0  CCCCCCCCCCCCCCCCOCC(CCl)OP(=O)(O)OP(=O)(O)OCC1OC(n2ccc(N)nc2=O)C(O)C1O (stereo not given)           TGI           µM         >     100
1  CC(=N\N=C\c1ccccn1)/C(C)=N/N=C(C)/C(C)=N/N=C/c1ccccn1           TGI           µM         >     100
2  CC(C)(C)OC(=O)C1CC[C@@H](CC(=O)Oc2ccc([N+](=O)[O-])cc2)N1 (stereo not given in full)           TGI           µM         >     100
3  CCOc1ccc(NC(=O)C2=C(C)NC(C)=C(C(=O)Nc3ccc(OCC)cc3)C2c2ccccc2)cc1           TGI           µM         >     100
4  OCC1OC(n2cnc3c(Cl)nc(Cl)cc32)C(O)C1O (stereo not given)           TGI           µM         >     100
5      COc1ccc2nc3ccccc3c(NCCCN(C)CCCl)c2c1           TGI           µM         =    1.24
6        CN(Cc1ccccc1)C(=NC#N)N(C)Cc1ccccc1           TGI           µM         >     100
7  Cn1/c(=N\N=C(\CNCCO)[C@@H](O)[C@@H]2OC(c3ccccc3)OC[C@H]2O)sc2ccccc21 (stereo not given in full)           TGI           µM         =      32
8   COc1cc(OC)c(NC(=O)c2cc3ccccc3cc2O)cc1Cl           TGI           µM         =    4.89
9  COc1cc2c(cc1OC)C(=O)Cc1ccc(OC)c(OC)c1CN(C)CC2           TGI           µM         =    98.5

###

system: NCI-H23 lung; assay: NCI tumour cell line growth inhibition, 48 h
Recorded GI50 values for a group of compounds are listed next.
readout.kind: GI50

                         chemical_structure    result
0   O=C1c2ccccc2-c2c1c1c(O)cccc1n2-c1ccccc1  > 100 µM
1  O=C(Nc1nc2ccc(F)cc2s1)c1cccnc1Nc1ccc(Cl)cc1   1.67 µM
2  CCOC(=O)/C(=C(/C)NCC(C)C)c1cc(O)c(O)c2c(C)cc(=O)[nH]c12   5.48 µM
3  O=C(/C(=C/c1ccc([N+](=O)[O-])cc1)SCc1ccc(F)cc1)c1ccc(Cl)cc1     11 µM
4  N#CS.N=C=S.N=C=S.[Cu+2].[NH2-].[NH2-].[NH2-].[NH2-].c1ccc2ncccc2c1  > 100 µM

###

TGI values, listed per item
system: HOP-62 NSCLC; experiment: NCI tumour cell line growth inhibition, 48 h
readout.kind: TGI

                                   molecule  assayed_target     result
0  O[C@@H]1C[C@H]2N3CC[C@@]2(c2cc4c(cc2C3)OCO4)[C@H]2O[C@@H]12    HOP-62 NSCLC   > 100 µM
1  Nc1c(C(=O)c2ccc(CCCN3CCOCC3)cc2)cnn1-c1ccc(F)cc1    HOP-62 NSCLC    > 25 µM
2         COCn1c(C)c(C)c2c(=O)oc(N(C)C)nc21    HOP-62 NSCLC   > 100 µM
3  COc1ccccc1/C=C1\CCC(CCN2CCOCC2)C1=O (centres undefined)    HOP-62 NSCLC   > 100 µM
4  CC(=O)N1CC(=O)N2C(=O)/C(=C/c3ccc(Cl)cc3)N=C12    HOP-62 NSCLC   > 100 µM
5                S=c1nc(Cl)cc2[nH]c(Cl)cn12    HOP-62 NSCLC   > 100 µM
6  Cc1ccc(C)c2c1CC(Cc1ccccc1C(=O)O)C2=O (centres undefined)    HOP-62 NSCLC   > 100 µM
7        O=[N+]([O-])c1cc(Cl)cc2cc(Br)cnc12    HOP-62 NSCLC  > 31.6 µM
8                         C=CN(C)S(C)(=O)=O    HOP-62 NSCLC   > 100 µM

Hello, the source for this data is PubChem BioAssay (NCI), in case you need it.
